Biological target: BACH1DBD (UniProt O14867 511-627)
Sequence (O14867 511-627): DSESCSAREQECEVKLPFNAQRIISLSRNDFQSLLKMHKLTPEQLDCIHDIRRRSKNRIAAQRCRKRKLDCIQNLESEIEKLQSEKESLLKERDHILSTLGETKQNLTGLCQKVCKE
Assay: EMSA; apparent; homodimer concentration; 150 mM NaCl, 50 mM HEPES pH 7.9, 10% glycerol, 1 mM TCEP, 1 mM DTT, 2 mM MgCl2; 3 nM DNA; TEV and 3C 50 ug/mL each, 4 h 25 °C; competition then O/N 4 °C; gels 4 °C in 1X TBE
Conditions: protein: recombinant; tags: C-terminal 3C-6xHis; chain copies: 2; label: 5' fluorescein on forward strand; blunt
property measured: Kd

What value of Kd has been reported for the following binder? HMOX1 CsMBE 30-mer (dsDNA) DNA 1: CTCGGGACCGTGACTCAGCAGGAAAAACAC DNA 2: GTGTTTTTCCTGCTGAGTCACGGTCCCGAG ~802 nM
